Task for the reader: assign each of the following compounds its reported pest or weed control at 31 g/ha.
system: pigweed (Amaranthus retroflexus); assay: Test A postemergence; format: in vivo; details: Amaranthus retroflexus, post-emergence, 240 h, Postemergence, 31 g ai/ha; visual injury after approx. 10 d; 0 to 100 scale, 0 no effect, 100 complete control; read-out: Plant response rating, Pigweed
Supply the numeric figure in %, leaving out any unit text.

Input `CN1C[C@H](c2ccc(C(F)(F)F)nc2)[C@@](C)(C(=O)Nc2ccc(F)c(F)c2F)C1=O` . Output pest or weed control at 31 g/ha: 20

Input `O=C(Nc1cccc(F)c1F)[C@H]1C(=O)N(OCc2ccccc2)CC[C@@H]1c1cccc(Cl)c1` . Output pest or weed control at 31 g/ha: 0

Input `COc1cccc([C@H]2CNC(=O)[C@@H]2C(=O)Nc2cccc(F)c2F)c1F` . Output pest or weed control at 31 g/ha: 0

Input `COc1cccc([C@H]2CN(C)C(=O)[C@@H]2C(=O)Nc2cccc(F)c2F)c1` . Output pest or weed control at 31 g/ha: 0

Input `CN1C[C@H](c2ccc(C(F)F)cc2)[C@@H](C(=O)Nc2ccccc2F)C1=O` . Output pest or weed control at 31 g/ha: 30

Input `Cc1cc(F)cc([C@H]2CN(C)C(=O)[C@@H]2C(=O)Nc2ccc(F)c(F)c2F)c1` . Output pest or weed control at 31 g/ha: 30

Input `CN1CC[C@@H](c2cccc(C(F)(F)F)c2)[C@H](C(=O)Nc2ccccc2F)C1=O` . Output pest or weed control at 31 g/ha: 0

Input COCc1ccccc1NC(=O)[C@H]1C(=O)N(C)C[C@@H]1c1cccc(C(F)(F)F)c1 (racemic) . Output pest or weed control at 31 g/ha: 0

Input `CSc1ccccc1NC(=O)[C@H]1C(=O)NC[C@@H]1c1ccc(C(F)(F)F)cn1` . Output pest or weed control at 31 g/ha: 0

Input `CN1C[C@H](c2ccc(C(F)(F)F)cn2)[C@@H](C(=O)Nc2cccc(F)c2F)C1=O` . Output pest or weed control at 31 g/ha: 0

Input `CN1C[C@H](c2cc(C(F)F)cs2)[C@@H](C(=O)Nc2cccc(C#N)c2F)C1=O` . Output pest or weed control at 31 g/ha: 0

Input `CN1CC[C@H](c2cccc(OC(F)(F)F)c2)[C@@H](C(=O)Nc2cccc(Cl)c2F)C1=O` . Output pest or weed control at 31 g/ha: 0

###

Task for the reader: assign each of the following compounds its reported pest or weed control at 500 g/ha.
test system: pigweed (Amaranthus retroflexus); assay: Test A preemergence; format: in vivo; details: Amaranthus retroflexus, pre-emergence, 240 h, 500 g ai/ha, preemergence; 0 to 100 scale (0 no effect, 100 complete control); read-out: Plant response rating, Pigweed
Supply the numeric figure in %, leaving out any unit text.

Input `Cc1c(F)cccc1NC(=O)[C@H]1C(=O)N(C)C[C@@H]1c1ccc(C(F)(F)F)cc1` . Output pest or weed control at 500 g/ha: 90

Input `Cc1c(F)ccc([C@H]2CNC(=O)[C@@H]2C(=O)Nc2cccc(F)c2F)c1F` . Output pest or weed control at 500 g/ha: 30

Input `Cc1ccc([C@H]2CN(C)C(=O)[C@@H]2C(=O)Nc2ccc(F)c(F)c2F)cc1` . Output pest or weed control at 500 g/ha: 70

Input C=CN1C[C@H](c2ccc(C)c(F)c2)[C@@H](C(=O)Nc2cccc(F)c2F)C1=O (racemic) . Output pest or weed control at 500 g/ha: 0

###

test system: ryegrass, Italian (Italian ryegrass, Lolium multiflorum); test: Test A preemergence; format: in vivo; conditions: Lolium multiflorum, pre-emergence, 240 h, 125 g ai/ha, preemergence; visual injury rating, 0 to 100 scale where 0 is no effect and 100 is complete control; approximately 10 d; read-out: Ryegrass, Italian plant response rating
Experimental endpoint: pest or weed control at 125 g/ha (%)
Supply the numeric figure in %, leaving out any unit text.

Input `CN1CC[C@H](c2ccc(C(F)(F)F)cc2)[C@@H](C(=O)Nc2cccc(F)c2F)C1=O` . Output pest or weed control at 125 g/ha: 20

Input `COc1ccc(C(F)(F)F)cc1[C@H]1CN(C)C(=O)[C@@H]1C(=O)Nc1ccccc1SC` . Output pest or weed control at 125 g/ha: 60

Input `Cc1ccc([C@H]2CN(C)C(=O)[C@@H]2C(=O)Nc2c(F)c(F)c(F)c(F)c2F)cc1` . Output pest or weed control at 125 g/ha: 40

Input `CSc1ccccc1NC(=O)[C@H]1C(=O)N(C)C[C@@H]1c1ccc2c(c1)OC(F)(F)O2` . Output pest or weed control at 125 g/ha: 50

Input `Cc1c(F)cccc1NC(=O)[C@H]1C(=O)N(C)C[C@@H]1c1ccc(OC(F)F)cc1` . Output pest or weed control at 125 g/ha: 20

Input `Cc1cc([C@H]2CNC(=O)[C@@H]2C(=O)Nc2ccccc2C(F)(F)F)ccc1Cl` . Output pest or weed control at 125 g/ha: 0

Input `N#Cc1ccc([C@H]2CNC(=O)[C@@H]2C(=O)Nc2ccccc2F)cc1F` . Output pest or weed control at 125 g/ha: 0

Input `Cc1ccc([C@H]2CN(C)C(=O)[C@@H]2C(=O)Nc2cccc(F)c2C#N)cc1` . Output pest or weed control at 125 g/ha: 60

Input `CSc1ccccc1NC(=O)[C@H]1C(=O)N(C)C[C@@H]1c1cccc(C)c1` . Output pest or weed control at 125 g/ha: 20

Input `CN1C[C@H](c2csc3c2CCC3)[C@@H](C(=O)Nc2cccc(F)c2F)C1=O` . Output pest or weed control at 125 g/ha: 30

Input `CN1C[C@H](c2ccc3c(c2)C(F)(F)C(F)(F)O3)[C@@H](C(=O)Nc2cccc(F)c2F)C1=O` . Output pest or weed control at 125 g/ha: 90

Input `CSc1ccccc1NC(=O)[C@H]1C(=O)N(C)C[C@@H]1c1cccc(C(F)(F)F)c1` . Output pest or weed control at 125 g/ha: 30

Input `N#Cc1cc([C@H]2CNC(=O)[C@]2(O)C(=O)Nc2ccccc2F)ccc1F` . Output pest or weed control at 125 g/ha: 0

Input `CN1C[C@H](c2ccc(Cl)c(F)c2)[C@@H](C(=O)Nc2cccc(F)c2F)C1=O` . Output pest or weed control at 125 g/ha: 60

Input `Cc1c(F)cccc1NC(=O)[C@H]1C(=O)N(C)C[C@@H]1c1ccc(F)c(Br)c1` . Output pest or weed control at 125 g/ha: 50

Input `Cc1c(F)cccc1NC(=O)[C@H]1C(=O)NC[C@@H]1c1cccc2c1OC(F)(F)O2` . Output pest or weed control at 125 g/ha: 0

###

system: barnyardgrass (Echinochloa crus-galli); assay: Test B flooded paddy test; format: in vivo; settings: Flood, 250 g ai/ha; 0 to 100 scale where 0 is no effect and 100 is complete control; 13 to 15 d
Task for the reader: assign each of the following molecules its reported Plant response rating, Barnyardgrass.
Reply with the value as a number alone.

Input O=C1NCC(c2ccnc(C(F)(F)F)c2)C1C(=O)Nc1cccc(F)c1F (racemic) [Compound 514] . Output Plant response rating, Barnyardgrass: 50

Input CN1CC(c2ccc(C(F)(F)F)cc2)C(C(=S)Nc2ccccc2F)C1=O (centres unmarked) [Compound 450] . Output Plant response rating, Barnyardgrass: 45

Input COCc1cccc(C2CNC(=O)C2C(=O)Nc2ccccc2Cl)c1 (centres unmarked) [Compound 498] . Output Plant response rating, Barnyardgrass: 45

Input CN1CC(c2cccc(C(F)(F)F)c2)C(C(=O)Nc2cccc(F)c2F)C1=O (centres unmarked) [Compound 636] . Output Plant response rating, Barnyardgrass: 70

Input CN1CC(c2ccc(C(F)(F)F)cc2F)C(C(=O)Nc2ccccc2S(C)(=O)=O)C1=O (centres unmarked) [Compound 473] . Output Plant response rating, Barnyardgrass: 40

Input Cc1ccc(C2CNC(=O)C2C(=O)Nc2ccccc2F)c(F)c1 (racemic) [Compound 509] . Output Plant response rating, Barnyardgrass: 0

Input Cc1c(F)ccc(NC(=O)C2C(=O)NCC2c2cccc(OC(F)(F)C(F)F)c2)c1F (centres unmarked) [Compound 460] . Output Plant response rating, Barnyardgrass: 40

Input Cc1ccc(C2CNC(=O)C2C(=O)Nc2cccc(F)c2F)cc1C(F)(F)F (centres unmarked) [Compound 642] . Output Plant response rating, Barnyardgrass: 30

Input CN1CC(c2ccc(C(F)(F)F)cc2)C(C(=O)Nc2ccc(F)cc2F)C1=O (centres unmarked) [Compound 625] . Output Plant response rating, Barnyardgrass: 40

Input O=C1NCC(c2ccc(Br)cc2)C1C(=O)Nc1ccc(F)cc1F (centres unmarked) [Compound 447] . Output Plant response rating, Barnyardgrass: 40

Input CN1CC(c2cccc(C(F)(F)F)c2)C(C(=O)Nc2ccccc2S(C)(=O)=O)C1=O (centres unmarked) [Compound 637] . Output Plant response rating, Barnyardgrass: 80
